// provenance: ChEMBL document CHEMBL4622917

System: MDA-MB-231
protocol: Cytotoxicity against human MDA-MB-231 cells incubated for 48 hrs by MTT assay
Type: functional, cell-based
condition.notes: MDA-MB-231, 48 h
IC50 for assorted compounds

compound.string	target.system	value
COC(=O)[C@H](C1=C2[C@H]3O[C@H]3[C@@H]3[C@@]45COC(=O)C[C@@H]4OC(C)(C)[C@@H]5C[C@@H](OC(=O)c4ccccc4)[C@@]3(C)[C@]2(C)CCC1=O)C(C)(C)CC(=O)O	MDA-MB-231	> 10 µM
CC1(C)O[C@H]2CC(=O)OC[C@]23[C@H]2CCC4=C([C@H]5CCC(=O)O5)C(=O)CC[C@@]4(C)[C@]2(C)CC[C@@H]13	MDA-MB-231	> 10 µM

Ask: Lab note: need IC50 with MDA-MB-231 for entry COC(=O)[C@@H]1C2=C(CC[C@]3(C)C2=CC[C@@H]2[C@@]45COC(=O)C[C@@H]4OC(C)(C)[C@@H]5C[C@@H](O)[C@]23C)OC(=O)CC1(C)C , please look it up.
Reply: > 10 µM
